Test system: T1, P7A-bP
T1 chain: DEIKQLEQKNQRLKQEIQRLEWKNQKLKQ
Experiment notes: two-hybrid library CCNG1;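 note: natural log of median RNA to DNA barcode read ratio; higher means stronger binding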
Result type: interaction score

Take a look at these entries with their results.
DEIKQLEQKNQRLKQEIQRLEWKNQKLKQ [P7A-bP] = -1.33
DKIKQLKQKIQRLKQENQRLEWENQKLEQ [P4A-bP] = -1.51
DKNKQLKQKIQRLKQKIQRLKWENQKLEQ [P12A-bP] = -1.24
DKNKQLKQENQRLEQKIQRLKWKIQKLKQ [P10A-bP] = -1.19
DKIKQLKQKNQRLKQKNQRLKWKIQKLKQ [P2A-bP] = -2.54
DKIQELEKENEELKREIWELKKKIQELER [4H2253-bH] = -1.72
DENKQLEQKIQRLKQKNQRLKWEIQKLEQ [P5A-bP] = -1.06
DEIKQLEQENQRLEQENQRLEWEIQKLEQ [P1A-bP] = -0.745

I = DEIKQLEQEIQRLEQKNQRLKWKNQKLKQ [P3A-bP]
II = DENKQLEQEIQRLEQEIQRLEWKNQKLKQ [P11A-bP]
III = DKNKQLKQEIQRLEQENQRLEWKIQKLKQ [P6A-bP]
List from greatest to least interaction score. Give the labels in the order specified.
III, I, II
(III: 0.418, I: -0.807, II: -2.06)
